- MEASUREMENT_DESCRIPTION: RPMI8226 myeloma cell viability, profiling panel, resazurin fluorescence, basal, 24 h, PK04 Diversity Set (AID 1180);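 note: RPMI8826 multiple myeloma cell line at 5000 cells per well; test concentration not given here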
- CONDITION_NOTES: higher = more signal
Would you please tag the item t when its z-score is 0.009 or above, and f when it is below?

Example entries and their recorded answers appear below.
{"columns": ["MOLECULE", "GROUP"],
 "data": [
  ["COc1ccc(NC(=O)O[C@H]2[C@H](OC(=O)Nc3ccccc3)[C@H](OC(=O)Nc3ccccc3)[C@@H](OC)O[C@@H]2CO)cc1", "f"],
  ["CCOc1cc(C(O)C2C=CC3C(=O)N(C)C(=O)C3N2Nc2ccccc2)ccc1O (stereo not given)", "f"],
  ["Cc1cc(C)c(C(O)C2C=CC3C(=O)NC(=O)C3N2Nc2ccc(Cl)cc2Cl)c(C)c1 (stereo not given)", "f"]
]}

Here is another molecule to look at.
// inclusive: z-score at least 0.009? input: `COCCCNC(=O)[C@@]1(Cc2ccccc2N=[N+]=[N-])COC(c2ccc(OCCCO)cc2)=N1`
t
